- System: wheat germ agglutinin (Triticum aestivum), Alexa647-labelled
- assay_method_text: Alexa647-WGA lectin binding to printed small molecules – biochemical, small-molecule microarray, 635/667 nm fluorescence, artefact control for SMM control-protein annotation, profiling panel (AID 1140);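 further: score merges 667 nm feature emission with signal to noise over triplicate slides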
- run_conditions: WGA-A647 binding, 635 nm fluorescence, higher = more signal
Label rule, in plain words: composite z-score of 0.7 and up is Satisfied, under 0.7 is Not satisfied.

Previously resolved entries follow.
compound: CN(C)C(=O)[C@]1(CCC(=O)OC(C)(C)C)N=C(c2ccc(OCCCO)cc2)O[C@@H]1c1ccccc1CN=[N+]=[N-]
system: wheat germ agglutinin (Triticum aestivum), Alexa647-labelled
category: Satisfied
--
compound: CCOC(=O)C1=C[C@@H](c2ccccc2)N(S(=O)(=O)c2ccc(C)cc2)[C@H]1c1ccc(OC)cc1
system: wheat germ agglutinin (Triticum aestivum), Alexa647-labelled
category: Satisfied
--
compound: O=C1NC(=O)C2C1C=CC(C(O)c1ccco1)N2Nc1ccc(Cl)cc1Cl (stereo not drawn)
system: wheat germ agglutinin (Triticum aestivum), Alexa647-labelled
category: Not satisfied

Does the compound CC(C)[Si](C#C[Si](C(C)C)(C(C)C)C(C)C)(O[C@H](c1ccccc1)c1cn(Cc2ccccc2)nn1)C(C)C have recorded composite z-score that is 0.7 or more?
Not satisfied

Please answer likewise for CCCCCC1=C2CNC(C)(C(=O)OC)C=C2C(C)C1=O (stereo not drawn)
Not satisfied

Please answer likewise for COC(=O)[C@@]1(Cc2ccccc2)[C@H]2c3cc(C(=O)N(C)C)n(Cc4ccc(C)o4)c3C[C@H]2CN1C(=O)c1ccccc1
Satisfied

Please answer likewise for C=CCNC(=O)[C@@H]1[C@H]2C(=O)O[C@H](c3ccccc3)[C@H](c3ccccc3)N2[C@H](c2ccccc2OCCO)[C@@]12C(=O)Nc1ccc(C#CCC(C(=O)OC)C(=O)OC)cc12
Not satisfied

Please answer likewise for Cc1ccc(NN2C(C(O)c3c(F)cccc3Cl)C=CC3C(=O)N(C4CCCCC4)C(=O)C32)cc1 (stereo not drawn)
Satisfied

The values you see were collected from PubChem BioAssay.
